- system: double-labeled CYP3A4 (C64/C468)-ER/DY (Homo sapiens, UniProt P08684, S18F, form not given)
- Sequence (P08684 13-503 S18F, form open): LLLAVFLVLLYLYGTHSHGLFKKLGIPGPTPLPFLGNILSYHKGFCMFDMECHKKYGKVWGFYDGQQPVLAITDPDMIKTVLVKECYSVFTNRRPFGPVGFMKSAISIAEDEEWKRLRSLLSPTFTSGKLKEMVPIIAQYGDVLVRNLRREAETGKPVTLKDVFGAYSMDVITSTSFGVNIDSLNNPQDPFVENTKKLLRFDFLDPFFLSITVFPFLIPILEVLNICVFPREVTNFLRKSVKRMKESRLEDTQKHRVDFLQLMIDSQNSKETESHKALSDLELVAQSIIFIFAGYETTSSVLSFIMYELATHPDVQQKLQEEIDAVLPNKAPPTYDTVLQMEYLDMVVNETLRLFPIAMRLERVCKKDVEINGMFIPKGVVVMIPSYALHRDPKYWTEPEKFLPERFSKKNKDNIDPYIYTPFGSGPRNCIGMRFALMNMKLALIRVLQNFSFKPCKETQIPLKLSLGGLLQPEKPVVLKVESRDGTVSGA
- measurement.notes: Steady-state LRET titration (delayed emission)
- Assay type: binding
- conditions.used: Table S2; C64/C468-ER/DY; same ligand concentrations
Response field label: string, one of yes (R (interprobe distance with ligand), steady-state measurements strictly below 40 Å) or no.

structure.smiles.string | label
CC(C)CCC[C@@H](C)[C@H]1CC[C@H]2[C@@H]3CC=C4C[C@@H](O)CC[C@]4(C)[C@H]3CC[C@]12C | no

Does the reported R (interprobe distance with ligand), steady-state measurements of the following molecule sit strictly below 40 Å? O=c1cc(-c2ccccc2)oc2c1ccc1ccccc12
no

Does the reported R (interprobe distance with ligand), steady-state measurements of the following molecule sit strictly below 40 Å? C[C@]12CC[C@H]3[C@@H](CCC4=CC(=O)CC[C@@]43C)[C@@H]1CC[C@@H]2O
no

Does the reported R (interprobe distance with ligand), steady-state measurements of the following molecule sit strictly below 40 Å? OCCCCc1ccc2ccc3cccc4ccc1c2c34
yes

Where these numbers come from: paper PMC3871636
